Data credit: ChEMBL document CHEMBL3108772

- test method notes: Apparent terminal half life in C57 mouse at 2.5 mg/kg, iv
- Format: ADME, organism-based
- Design: dose 2.5 mg/kg, route intravenous
- particulars: in vivo, read-out: betat1/2(app) (converted)
The reader will find reported half-life values listed item by item below.
Report only the number, with the unit h understood.

For the compound `COc1cc(C(N)=O)ccc1NC(=O)[C@@H]1N[C@@H](CC(C)(C)C)[C@@]2(C(=O)Nc3cc(Cl)sc32)[C@H]1c1cccc(Cl)c1F` , what half-life is on record?
3

What would you report for `COc1cc(C(=O)O)ccc1NC(=O)[C@@H]1N[C@@H](CC(C)(C)C)[C@@]2(C(=O)Nc3cc(Cl)sc32)[C@H]1c1cccc(Cl)c1F` ?
1.68
